Origin of the recorded values: patent US20070077617

- testedOn: fusion protein PRY
- Sequence (chain, as listed by the source): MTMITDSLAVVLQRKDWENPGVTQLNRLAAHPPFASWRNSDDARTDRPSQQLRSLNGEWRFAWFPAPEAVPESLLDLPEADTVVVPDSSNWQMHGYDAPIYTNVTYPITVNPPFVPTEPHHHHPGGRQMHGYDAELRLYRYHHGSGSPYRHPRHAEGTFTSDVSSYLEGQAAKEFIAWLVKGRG
propertyMeasured: relative cleavage efficiency

>  <protein>
OmpT protease variant OmpT D97A (protein) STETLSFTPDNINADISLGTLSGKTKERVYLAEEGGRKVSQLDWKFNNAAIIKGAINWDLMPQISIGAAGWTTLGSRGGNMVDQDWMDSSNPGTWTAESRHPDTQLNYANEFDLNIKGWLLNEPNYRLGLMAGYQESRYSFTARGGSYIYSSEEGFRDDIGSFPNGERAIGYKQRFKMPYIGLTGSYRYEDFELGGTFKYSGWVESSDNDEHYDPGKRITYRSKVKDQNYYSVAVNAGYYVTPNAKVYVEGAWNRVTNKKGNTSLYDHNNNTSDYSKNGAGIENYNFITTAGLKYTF

>  <result>
< 3%

$$$$
>  <protein>
OmpT protease (wild-type, E. coli mature OmpT protease) (protein) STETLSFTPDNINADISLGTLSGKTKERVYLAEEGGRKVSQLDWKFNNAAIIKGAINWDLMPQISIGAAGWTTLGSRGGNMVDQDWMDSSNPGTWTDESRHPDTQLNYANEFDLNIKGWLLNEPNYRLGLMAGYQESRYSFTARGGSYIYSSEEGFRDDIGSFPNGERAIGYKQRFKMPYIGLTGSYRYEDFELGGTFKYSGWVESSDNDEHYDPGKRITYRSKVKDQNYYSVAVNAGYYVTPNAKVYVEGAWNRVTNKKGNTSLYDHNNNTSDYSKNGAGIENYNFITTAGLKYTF

>  <result>
< 3%

$$$$
>  <protein>
OmpT protease variant OmpT D97Q (protein) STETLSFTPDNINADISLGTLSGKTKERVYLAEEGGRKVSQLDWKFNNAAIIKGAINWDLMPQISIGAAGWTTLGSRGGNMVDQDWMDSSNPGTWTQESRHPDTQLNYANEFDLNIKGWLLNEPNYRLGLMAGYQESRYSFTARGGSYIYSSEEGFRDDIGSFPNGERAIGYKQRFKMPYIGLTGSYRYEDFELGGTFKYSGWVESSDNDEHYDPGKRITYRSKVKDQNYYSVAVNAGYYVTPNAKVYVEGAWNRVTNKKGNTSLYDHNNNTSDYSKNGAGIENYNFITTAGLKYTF

>  <result>
< 3%

$$$$
